Assay: Half life in rat at 5 mg/kg by LC-MS/MS analysis
Type: ADME, organism-based
Conditions: in vivo
Measurement name: half-life
Field: value (include unit after the number)

stdin: # half-life lookup, item CC(=O)N[C@@H](CC(C)C)C(=O)N[C@H](C(=O)N[C@@H](Cc1ccccc1)C(=O)N[C@]1(C)CCCCCC/C=C/CCC[C@@](C)(C(=O)N[C@@H](C)C(=O)N[C@@H](C)C(=O)N[C@@H](C)C(=O)N[C@@H](C)C(=O)N[C@@H](C)C(=O)N[C@H](C)C(N)=O)NC(=O)[C@H](CC(C)C)NC(=O)[C@H](CCC(N)=O)NC(=O)[C@H](C)NC(=O)[C@H](Cc2c[nH]c3ccccc23)NC(=O)[C@H](Cc2ccc(O)cc2)NC(=O)[C@H](CCC(=O)O)NC1=O)[C@@H](C)O
stdout: 2 h

====

Assay: Plasma protein binding in mouse at 250 uM
Type: ADME, cell-free
Settings: read-out: PPB (converted)
Measurement name: fraction unbound at 250 µM
Enter the number alone.

stdin: So what's the measured fraction unbound at 250 µM for this one? CC(=O)N[C@@H](CC(C)C)C(=O)N[C@H](C(=O)N[C@@H](Cc1ccccc1)C(=O)N[C@]1(C)CCCCCC/C=C/CCC[C@@](C)(C(=O)N[C@@H](C)C(=O)N[C@@H](C)C(=O)N[C@@H](C)C(=O)N[C@@H](C)C(=O)N[C@@H](C)C(=O)N[C@H](C)C(N)=O)NC(=O)[C@H](CC(C)C)NC(=O)[C@H](CCC(N)=O)NC(=O)[C@H](C)NC(=O)[C@H](Cc2c[nH]c3ccccc23)NC(=O)[C@H](Cc2ccc(O)cc2)NC(=O)[C@H](CCC(=O)O)NC1=O)[C@@H](C)O
stdout: 0.02

====

Test: Plasma protein binding in monkey at 250 uM
Format: ADME, cell-free, Macaca mulatta
Conditions: rhesus monkey, read-out: PPB (converted)
Measurement name: fraction unbound at 250 µM
Write the value as a bare number.

stdin: Which measured fraction unbound at 250 µM value corresponds to CC(=O)N[C@@H](CC(C)C)C(=O)N[C@H](C(=O)N[C@@H](Cc1ccccc1)C(=O)N[C@]1(C)CCCCCC/C=C/CCC[C@@](C)(C(=O)N[C@@H](C)C(=O)N[C@@H](C)C(=O)N[C@@H](C)C(=O)N[C@@H](C)C(=O)N[C@@H](C)C(=O)N[C@H](C)C(N)=O)NC(=O)[C@H](CC(C)C)NC(=O)[C@H](CCC(N)=O)NC(=O)[C@H](C)NC(=O)[C@H](Cc2c[nH]c3ccccc23)NC(=O)[C@H](Cc2ccc(O)cc2)NC(=O)[C@H](CCC(=O)O)NC1=O)[C@@H](C)O ?
stdout: 0.12

====

Test: Clearance in rat at 10 mg/kg by LC-MS/MS analysis
Format: ADME, organism-based
Conditions: in vivo
Measurement name: clearance
Value and unit, in that order.

stdin: Can you share its clearance? I mean this compound: CC(=O)N[C@@H](CC(C)C)C(=O)N[C@H](C(=O)N[C@@H](Cc1ccccc1)C(=O)N[C@]1(C)CCCCCC/C=C/CCC[C@@](C)(C(=O)N[C@@H](C)C(=O)N[C@@H](C)C(=O)N[C@@H](C)C(=O)N[C@@H](C)C(=O)N[C@@H](C)C(=O)N[C@H](C)C(N)=O)NC(=O)[C@H](CC(C)C)NC(=O)[C@H](CCC(N)=O)NC(=O)[C@H](C)NC(=O)[C@H](Cc2c[nH]c3ccccc23)NC(=O)[C@H](Cc2ccc(O)cc2)NC(=O)[C@H](CCC(=O)O)NC1=O)[C@@H](C)O
stdout: 0.317 mL/min/kg

====

Assay: Plasma protein binding in monkey at 2 to 50 uM
Assay type: ADME, cell-free, Macaca mulatta
Details: rhesus monkey, dose 2-50 µM, read-out: PPB (converted)
Measurement name: fraction unbound at up to 50 µM
Respond using a number only.

stdin: Entry CC(=O)N[C@@H](CC(C)C)C(=O)N[C@H](C(=O)N[C@@H](Cc1ccccc1)C(=O)N[C@]1(C)CCCCCC/C=C/CCC[C@@](C)(C(=O)N[C@@H](C)C(=O)N[C@@H](C)C(=O)N[C@@H](C)C(=O)N[C@@H](C)C(=O)N[C@@H](C)C(=O)N[C@H](C)C(N)=O)NC(=O)[C@H](CC(C)C)NC(=O)[C@H](CCC(N)=O)NC(=O)[C@H](C)NC(=O)[C@H](Cc2c[nH]c3ccccc23)NC(=O)[C@H](Cc2ccc(O)cc2)NC(=O)[C@H](CCC(=O)O)NC1=O)[C@@H](C)O has what fraction unbound at up to 50 µM?
stdout: 0.08

====

Test: Plasma protein binding in human assessed as unbound fraction at >200 uM
Type: ADME, cell-free
Measurement name: fraction unbound
// response body must contain only the number

stdin: So what does the record say about fraction unbound for CC(=O)N[C@@H](CC(C)C)C(=O)N[C@H](C(=O)N[C@@H](Cc1ccccc1)C(=O)N[C@]1(C)CCCCCC/C=C/CCC[C@@](C)(C(=O)N[C@@H](C)C(=O)N[C@@H](C)C(=O)N[C@@H](C)C(=O)N[C@@H](C)C(=O)N[C@@H](C)C(=O)N[C@H](C)C(N)=O)NC(=O)[C@H](CC(C)C)NC(=O)[C@H](CCC(N)=O)NC(=O)[C@H](C)NC(=O)[C@H](Cc2c[nH]c3ccccc23)NC(=O)[C@H](Cc2ccc(O)cc2)NC(=O)[C@H](CCC(=O)O)NC1=O)[C@@H](C)O ?
stdout: 0.12

====

Assay: Plasma protein binding in mouse at 2 to 50 uM
Assay type: ADME, cell-free
Conditions: dose 2-50 µM, read-out: PPB (converted)
Measurement name: fraction unbound at up to 50 µM
// no unit string in output, number only

stdin: Which fraction unbound at up to 50 µM value is on record for CC(=O)N[C@@H](CC(C)C)C(=O)N[C@H](C(=O)N[C@@H](Cc1ccccc1)C(=O)N[C@]1(C)CCCCCC/C=C/CCC[C@@](C)(C(=O)N[C@@H](C)C(=O)N[C@@H](C)C(=O)N[C@@H](C)C(=O)N[C@@H](C)C(=O)N[C@@H](C)C(=O)N[C@H](C)C(N)=O)NC(=O)[C@H](CC(C)C)NC(=O)[C@H](CCC(N)=O)NC(=O)[C@H](C)NC(=O)[C@H](Cc2c[nH]c3ccccc23)NC(=O)[C@H](Cc2ccc(O)cc2)NC(=O)[C@H](CCC(=O)O)NC1=O)[C@@H](C)O ?
stdout: 0.08

====

Assay: Plasma protein binding in human assessed as unbound fraction upto 150 uM
Assay type: ADME, cell-free
Measurement name: fraction unbound at up to 150 µM
Would you mind answering with just the numeric figure?

stdin: Fill blank: measured fraction unbound at up to 150 µM of the molecule CC(=O)N[C@@H](CC(C)C)C(=O)N[C@H](C(=O)N[C@@H](Cc1ccccc1)C(=O)N[C@]1(C)CCCCCC/C=C/CCC[C@@](C)(C(=O)N[C@@H](C)C(=O)N[C@@H](C)C(=O)N[C@@H](C)C(=O)N[C@@H](C)C(=O)N[C@@H](C)C(=O)N[C@H](C)C(N)=O)NC(=O)[C@H](CC(C)C)NC(=O)[C@H](CCC(N)=O)NC(=O)[C@H](C)NC(=O)[C@H](Cc2c[nH]c3ccccc23)NC(=O)[C@H](Cc2ccc(O)cc2)NC(=O)[C@H](CCC(=O)O)NC1=O)[C@@H](C)O is ____.
stdout: 0.03

====

Assay: AUC (all) in rat at 2.5 mg/kg by LC-MS/MS analysis
Format: ADME, organism-based
Set-up: dose 2.5 mg/kg
Conditions: in vivo
Measurement name: AUC (ng·h/mL)
// units = ng·h/mL; emit number, no label

stdin: Value lookup for AUC; key = CC(=O)N[C@@H](CC(C)C)C(=O)N[C@H](C(=O)N[C@@H](Cc1ccccc1)C(=O)N[C@]1(C)CCCCCC/C=C/CCC[C@@](C)(C(=O)N[C@@H](C)C(=O)N[C@@H](C)C(=O)N[C@@H](C)C(=O)N[C@@H](C)C(=O)N[C@@H](C)C(=O)N[C@H](C)C(N)=O)NC(=O)[C@H](CC(C)C)NC(=O)[C@H](CCC(N)=O)NC(=O)[C@H](C)NC(=O)[C@H](Cc2c[nH]c3ccccc23)NC(=O)[C@H](Cc2ccc(O)cc2)NC(=O)[C@H](CCC(=O)O)NC1=O)[C@@H](C)O
stdout: 90500

====

Test: Cmax in mouse at 5 mg/kg by LC-MS/MS analysis
Type: ADME, organism-based
Design: dose 5 mg/kg
Conditions: in vivo
Measurement name: Cmax (µg/mL)
Please give a number only; it is taken to be in µg/mL.

stdin: Which Cmax value is on record for CC(=O)N[C@@H](CC(C)C)C(=O)N[C@H](C(=O)N[C@@H](Cc1ccccc1)C(=O)N[C@]1(C)CCCCCC/C=C/CCC[C@@](C)(C(=O)N[C@@H](C)C(=O)N[C@@H](C)C(=O)N[C@@H](C)C(=O)N[C@@H](C)C(=O)N[C@@H](C)C(=O)N[C@H](C)C(N)=O)NC(=O)[C@H](CC(C)C)NC(=O)[C@H](CCC(N)=O)NC(=O)[C@H](C)NC(=O)[C@H](Cc2c[nH]c3ccccc23)NC(=O)[C@H](Cc2ccc(O)cc2)NC(=O)[C@H](CCC(=O)O)NC1=O)[C@@H](C)O ?
stdout: 67.8

Source of measurements: ChEMBL document CHEMBL5346962
